Recorded pKd, one value per entry.
# EXPERIMENTAL TARGET: T1, human Tim-3 expressed on the cell surface (human, UniProt Q8TDQ0 22-301)
# T1 construct: also called hTim-3; Human Tim-3 (CHO)
# METHOD: flow cytometry, activated human CD4+ T cells
Hey, just a heads up that pKd is the negative log base 10 of the concentration in molar.

{"BINDER": "h22E11-VK3-11 × h22E11-VH1-69 (antibody, V domains shown, Humanized m22E11) VH: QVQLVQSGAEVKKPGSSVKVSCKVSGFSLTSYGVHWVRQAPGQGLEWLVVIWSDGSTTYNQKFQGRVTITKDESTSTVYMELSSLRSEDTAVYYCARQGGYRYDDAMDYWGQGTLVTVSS VL: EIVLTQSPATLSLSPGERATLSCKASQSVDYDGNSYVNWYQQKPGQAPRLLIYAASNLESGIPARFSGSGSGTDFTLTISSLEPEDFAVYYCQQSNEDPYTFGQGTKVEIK", "pKd": 8.40}

Now turn to the next binder.
Item h22E11-VK3-11 × h22E11-VH3-23 (antibody, V domains shown, Humanized m22E11) VH: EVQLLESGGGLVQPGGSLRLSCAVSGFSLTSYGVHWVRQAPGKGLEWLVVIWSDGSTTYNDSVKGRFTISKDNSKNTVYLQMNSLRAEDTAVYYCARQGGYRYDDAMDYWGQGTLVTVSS VL: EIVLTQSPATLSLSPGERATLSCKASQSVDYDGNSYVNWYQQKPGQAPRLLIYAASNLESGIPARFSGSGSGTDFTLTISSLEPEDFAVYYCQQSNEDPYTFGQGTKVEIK has what recorded pKd?
9.05
